Target: DNA dC->dU-editing enzyme APOBEC-3F (Homo sapiens) (UniProt Q8IUX4)
Sequence (Q8IUX4 whole entry, looked up): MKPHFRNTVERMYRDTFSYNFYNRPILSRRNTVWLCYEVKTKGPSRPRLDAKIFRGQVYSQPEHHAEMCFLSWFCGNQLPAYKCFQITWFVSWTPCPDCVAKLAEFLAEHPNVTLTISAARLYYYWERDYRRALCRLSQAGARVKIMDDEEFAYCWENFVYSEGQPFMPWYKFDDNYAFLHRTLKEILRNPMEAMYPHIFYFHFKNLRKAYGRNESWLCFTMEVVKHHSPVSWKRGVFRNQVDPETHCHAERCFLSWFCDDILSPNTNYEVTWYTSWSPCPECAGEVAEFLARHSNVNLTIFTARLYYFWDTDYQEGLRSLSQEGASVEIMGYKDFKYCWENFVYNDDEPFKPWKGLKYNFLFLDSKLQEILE
Assay: qHTS for inhibitors of Vif-A3F interactions: Cherry picks counterscreen; note: nearly all actives have a fitted effect of over 65% in size
Conditions: HeLa A3F-eYFP/Vif cells, eYFP fluorescence, 24 h; series mostly up to 46.1 µM
Source text: The recent discovery and characterization of host restriction factors, which provide a potent defense to invading retroviruses, has provided new targets for antiviral drug development. […] In the presence of an inhibitor, it is expected that Vif will be unable to degrade A3G-eYFP and/or A3F-eYFP, resulting in an increase in yellow fluorescence. […]
About 1,100 (52%) of roughly 2,100 compounds were called active. About 29% were inconclusive and are not listed. Calls come from the whole dose curve; as a rule, active = well fitted inhibition curve with a large enough effect; inconclusive = small, poorly fitted or top-dose-only effect; inactive = no such curve, though single readings can be large or run the other way. So high a share suggests a set chosen from earlier hits. The list shows a part of the results.
Outcomes you can answer with include only these: 1 (yes) (active), 0 (no) (inactive)

Would you please look over these solved cases?
>>> df
                                   compound  category
0  Cc1cccc(/C=C/C(=O)c2ccc([N+](=O)[O-])o2)c1   1 (yes)
1  Cc1ccc(NC(=O)c2ccc([N+](=O)[O-])s2)cc1S(=O)(=O)N1CCOCC1    0 (no)
2              c1ccc(N=Nc2ccc3cccccc2-3)cc1   1 (yes)
3  Cc1ccc(/C=N/NC(=O)CCCOc2ccc(Cl)cc2Cl)cc1   1 (yes)
4  CC#Cc1cc2c(cc1O)CCC1C2CCC2(C)C(O)CCC12 (stereo not drawn)   1 (yes)

IN: Which outcome was entered for the compound Cc1ccc(NC(=O)c2ccc(NCC3CCCO3)c([N+](=O)[O-])c2)cc1Cl (stereo not drawn) in this test?
OUT: 1 (yes)

IN: Which outcome was entered for the compound CC(C)CC(=O)NC(=S)N(Cc1ccccc1)Cc1ccccc1 in this test?
OUT: 0 (no)

IN: Which outcome was entered for the compound Cn1c(=S)c2[nH]c(SCCN3CCCC3)nc2n(C)c1=O in this test?
OUT: 0 (no)
